# Tested on: E. coli N43
# Run Description: MIC assay, CLSI broth microdilution in CAMH broth
# Format: cell-based, Escherichia coli
Reported Endpoint: Intrinsic MIC in CAMH

Give the reported Intrinsic MIC in CAMH for Nc1nc(N)c2ccc3c(ccn3Cc3ccc(Br)cc3)c2n1 (system: E. coli N43).
≤0.25¤

Give the reported Intrinsic MIC in CAMH for Nc1nc(N)c2ccc3c(ccn3Cc3cccc(C#Cc4ccccc4)c3)c2n1 (system: E. coli N43).
4¤

Give the reported Intrinsic MIC in CAMH for CC[C@H]1OC(=O)[C@H](C)[C@@H](O[C@H]2C[C@@](C)(OC)[C@@H](O)[C@H](C)O2)[C@H](C)[C@@H](O[C@@H]2O[C@H](C)C[C@H](N(C)C)[C@H]2O)[C@](C)(O)C[C@@H](C)CN(C)[C@H](C)[C@@H](O)[C@]1(C)O [AZM, azithromycin, reference compound] (system: E. coli N43).
1¤

Give the reported Intrinsic MIC in CAMH for Nc1nc(N)c2ccc3c(ccn3Cc3ccc(-c4ccccc4C(F)(F)F)cc3)c2n1 (system: E. coli N43).
<0.125¤

Give the reported Intrinsic MIC in CAMH for Cc1cc2c3nc(N)nc(N)c3ccc2n1Cc1ccc(-c2ccccc2C#N)cc1 (system: E. coli N43).
<0.125¤

Give the reported Intrinsic MIC in CAMH for Nc1nc(N)c2ccc3c(ccn3Cc3ccc(C(F)(F)F)cc3)c2n1 (system: E. coli N43).
≤0.015¤

Give the reported Intrinsic MIC in CAMH for Nc1nc(N)c2ccc3c(ccn3Cc3ccc4ccccc4c3)c2n1 (system: E. coli N43).
8¤

Give the reported Intrinsic MIC in CAMH for Nc1nc(N)c2ccc3c(ccn3C3C=CCCC3)c2n1 (stereo not shown) (system: E. coli N43).
<0.125¤

Give the reported Intrinsic MIC in CAMH for N#Cc1ccccc1-c1ccc(Cn2ccc3c4nc(N)nc(N)c4cnc32)cc1 (system: E. coli N43).
<0.125¤

Give the reported Intrinsic MIC in CAMH for Nc1nc(N)c2ccc3c(ccn3Cc3cccc(C#Cc4ccccc4C(F)(F)F)c3)c2n1 (system: E. coli N43).
32¤

----------
# Test system: K. pneumoniae ATCC 13883
# Run Description: MIC assay, CLSI broth microdilution in CAMH broth; note: unit not given here
# Type: cell-based, Klebsiella pneumoniae
# Setup Conditions: K. pneumonias ATCC 13883
Reported Endpoint: Intrinsic MIC in CAMH

# query: Intrinsic MIC in CAMH of entry Nc1nc(N)c2ccc3c(ccn3Cc3cccc(C#Cc4ccccc4C(F)(F)F)c3)c2n1 [Example 45]
>64¤

# query: Intrinsic MIC in CAMH of entry Nc1nc(N)c2ccc3c(ccn3Cc3ccc(C(=O)c4ccccc4)cc3)c2n1 [Example 16]
>64¤

# query: Intrinsic MIC in CAMH of entry Nc1nc(N)c2ccc3c(ccn3Cc3ccc(Br)cc3)c2n1 [Example 2]
4¤

# query: Intrinsic MIC in CAMH of entry Nc1nc(N)c2ccc3c(ccn3Cc3cccc(C#Cc4ccccc4)c3)c2n1 [Example 44]
>64¤

# query: Intrinsic MIC in CAMH of entry N#Cc1cccc(Cn2ccc3c4nc(N)nc(N)c4ccc32)c1 [Example 6]
16¤

# query: Intrinsic MIC in CAMH of entry Nc1nc(N)c2ccc3c(ccn3Cc3ccc4ccccc4c3)c2n1 [Example 21]
>64¤

# query: Intrinsic MIC in CAMH of entry Nc1nc(N)c2ccc3c(ccn3Cc3ccccc3Br)c2n1 [Example 4]
8¤

# query: Intrinsic MIC in CAMH of entry Nc1nc(N)c2ccc3c(ccn3Cc3cccc(Br)c3)c2n1 [Example 3]
>64¤

# query: Intrinsic MIC in CAMH of entry N#Cc1ccccc1-c1ccc(Cn2ccc3c4nc(N)nc(N)c4ccc32)cc1F [Example 38]
16¤

# query: Intrinsic MIC in CAMH of entry C#Cc1ccc(Cn2ccc3c4nc(N)nc(N)c4ccc32)cc1 [Example 42]
32¤

Hey, just so you know, these numbers are from patent US20240317749A1.
